// data source = the kinase profiling compilation of Christmann-Franck et al. (2016)

# Assay Target: INSRR (human) (UniProt P14616)
# Sequence (P14616 whole entry, looked up): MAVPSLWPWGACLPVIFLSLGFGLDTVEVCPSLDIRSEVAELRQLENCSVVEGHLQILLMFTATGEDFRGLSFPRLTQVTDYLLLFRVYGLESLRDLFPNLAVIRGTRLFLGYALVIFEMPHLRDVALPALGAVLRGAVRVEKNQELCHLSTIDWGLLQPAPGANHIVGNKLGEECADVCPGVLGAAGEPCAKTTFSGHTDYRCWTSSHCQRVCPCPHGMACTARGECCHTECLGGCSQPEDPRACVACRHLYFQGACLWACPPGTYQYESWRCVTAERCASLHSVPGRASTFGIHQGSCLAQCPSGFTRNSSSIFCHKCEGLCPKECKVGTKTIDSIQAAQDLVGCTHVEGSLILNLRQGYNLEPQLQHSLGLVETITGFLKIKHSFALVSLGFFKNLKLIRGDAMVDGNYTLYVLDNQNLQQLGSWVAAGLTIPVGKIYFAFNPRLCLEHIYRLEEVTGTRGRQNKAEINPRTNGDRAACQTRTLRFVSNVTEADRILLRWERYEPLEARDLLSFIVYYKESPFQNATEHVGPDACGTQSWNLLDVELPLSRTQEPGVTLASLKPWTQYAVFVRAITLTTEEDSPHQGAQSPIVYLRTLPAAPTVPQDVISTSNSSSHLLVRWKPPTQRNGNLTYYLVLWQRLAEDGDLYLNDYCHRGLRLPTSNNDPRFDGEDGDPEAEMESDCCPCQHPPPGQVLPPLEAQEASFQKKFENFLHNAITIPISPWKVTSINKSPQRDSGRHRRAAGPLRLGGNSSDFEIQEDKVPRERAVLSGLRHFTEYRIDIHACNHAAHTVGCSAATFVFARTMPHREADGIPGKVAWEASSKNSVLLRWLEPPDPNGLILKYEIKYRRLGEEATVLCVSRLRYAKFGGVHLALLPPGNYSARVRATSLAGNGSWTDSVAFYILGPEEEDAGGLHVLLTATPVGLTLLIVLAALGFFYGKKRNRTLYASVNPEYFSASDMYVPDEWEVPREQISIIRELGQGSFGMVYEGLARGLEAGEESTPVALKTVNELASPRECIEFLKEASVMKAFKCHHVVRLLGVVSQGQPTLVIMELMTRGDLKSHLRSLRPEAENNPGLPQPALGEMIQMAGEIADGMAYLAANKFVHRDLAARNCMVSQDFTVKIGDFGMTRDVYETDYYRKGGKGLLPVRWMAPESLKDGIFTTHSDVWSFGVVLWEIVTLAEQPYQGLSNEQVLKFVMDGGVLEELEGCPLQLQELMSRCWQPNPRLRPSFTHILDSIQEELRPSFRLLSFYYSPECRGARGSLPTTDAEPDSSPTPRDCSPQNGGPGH
# Assay Procedure: radiometric filter-binding kinase assay, Kinase HotSpot
# Reported Conditions: compound 0.5 µM; ATP 10 µM

Chemical String	residual activity [%]
COc1ccc2c(c1)/C(=C/c1cnc[nH]1)C(O)=N2	97.8
Fc1ccc(-c2nc3n(c2-c2ccncc2)CCS3)cc1	102
CCCCc1c(-c2ccc(OC)cc2)[nH]c2nccnc12	83.2
COc1ccc2c(c1)c(C1=C(c3c[nH]c4ccccc34)C(=O)NC1=O)cn2CCCN(C)C	101
Cn1c2ccccc2c2c3c(c4c5ccccc5n(CCC#N)c4c21)CNC3=O	82.5
COc1cc(Nc2c(C#N)cnc3cc(OCCCN4CCN(C)CC4)c(OC)cc23)c(Cl)cc1Cl	36.9
C[C@@H]1CCN(C(=O)CC#N)C[C@@H]1N(C)c1ncnc2[nH]ccc12	97.5
CN(C)S(=O)(=O)c1ccc2c(c1)/C(=C/c1cc3c([nH]1)CCCC3)C(=O)N2	93.3
COc1ccc(C(=O)Nc2sc3c(c2C(N)=O)CCCC3)cc1OC	99.7
O=C1NC(=O)c2c1c1c3ccccc3[nH]c1n1cncc21	20.7

---

# Assay Target: MAP2K2 (human) (UniProt P36507)
# Sequence (P36507 whole entry, looked up): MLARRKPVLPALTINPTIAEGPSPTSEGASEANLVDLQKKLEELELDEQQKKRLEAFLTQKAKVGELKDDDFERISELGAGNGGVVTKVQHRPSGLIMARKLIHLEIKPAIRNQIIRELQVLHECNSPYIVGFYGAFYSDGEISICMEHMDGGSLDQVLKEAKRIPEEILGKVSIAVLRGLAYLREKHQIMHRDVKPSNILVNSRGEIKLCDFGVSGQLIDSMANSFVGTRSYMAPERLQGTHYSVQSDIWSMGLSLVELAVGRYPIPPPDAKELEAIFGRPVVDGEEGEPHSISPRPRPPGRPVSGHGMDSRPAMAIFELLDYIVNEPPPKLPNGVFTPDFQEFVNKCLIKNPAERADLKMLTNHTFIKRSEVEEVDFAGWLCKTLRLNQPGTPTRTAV
# Assay Procedure: radiometric filter-binding kinase assay, Kinase HotSpot
# Reported Conditions: compound 0.5 µM; ATP 10 µM

Chemical String	residual activity / %
CC(C)(C)c1cc(C=C(C#N)C#N)cc(Br)c1O	85.8
COc1cc2ncnc(Nc3ccc(OCc4ccccc4)cc3)c2cc1OC	98.5
Fc1ccc(-c2nc3n(c2-c2ccncc2)CCS3)cc1	106
c1ccc2c(-c3ccncc3)c[nH]c2c1	103
N#C/C(=C\c1ccc(O)c(O)c1)C(=O)NCc1ccccc1	105
Cc1nc(-c2ccccc2)c(-c2ccncc2)o1	106
O=C1NC(=O)c2c1c1c3ccccc3[nH]c1n1cncc21	85.9

---

Attribute: residual activity
# Assay Target: UniProt P48729
# Sequence (P48729 whole entry, looked up): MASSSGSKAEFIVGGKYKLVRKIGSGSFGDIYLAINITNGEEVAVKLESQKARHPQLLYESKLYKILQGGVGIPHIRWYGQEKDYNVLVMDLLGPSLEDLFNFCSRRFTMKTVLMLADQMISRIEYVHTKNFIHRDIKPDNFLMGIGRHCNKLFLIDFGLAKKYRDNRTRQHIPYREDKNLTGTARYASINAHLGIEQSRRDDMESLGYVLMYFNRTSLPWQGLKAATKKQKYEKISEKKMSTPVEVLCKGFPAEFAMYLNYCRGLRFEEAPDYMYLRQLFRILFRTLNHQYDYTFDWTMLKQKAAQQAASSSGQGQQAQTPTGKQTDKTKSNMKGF
# Assay Procedure: radiometric filter-binding kinase assay, Kinase HotSpot
# Reported Conditions: compound 0.5 µM; ATP 10 µM
Test Readout: residual activity

Chemical String	Test Readout	Observed Measurement
Ic1cccc(CSc2nnc(-c3ccncc3)o2)c1	residual activity	97%
Cc1nc(-c2ccccc2)c(-c2ccncc2)o1	residual activity	86.4%
Cn1c2ccccc2c2c3c(c4c5ccccc5n(CCC#N)c4c21)CNC3=O	residual activity	75.4%
COc1ccc2c(c1)/C(=C/c1cnc[nH]1)C(O)=N2	residual activity	86.4%
c1ccc2c(-c3ccncc3)c[nH]c2c1	residual activity	100%
O=C(c1cc2cc(O)ccc2[nH]1)c1cc2cc(O)ccc2[nH]1	residual activity	96.3%

---

Attribute: residual activity
# Assay Target: CDK6 CCND1 (human) (UniProt Q00534+P24385)
# Sequence (P24385 whole entry, looked up): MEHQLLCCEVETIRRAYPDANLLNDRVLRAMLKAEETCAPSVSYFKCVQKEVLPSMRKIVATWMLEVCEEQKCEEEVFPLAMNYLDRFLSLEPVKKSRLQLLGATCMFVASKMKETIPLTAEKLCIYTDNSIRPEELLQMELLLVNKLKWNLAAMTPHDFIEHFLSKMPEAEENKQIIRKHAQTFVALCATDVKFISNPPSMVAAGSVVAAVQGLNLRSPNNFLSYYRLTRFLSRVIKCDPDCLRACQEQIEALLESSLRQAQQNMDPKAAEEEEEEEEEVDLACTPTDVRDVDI
# Sequence (Q00534 whole entry, looked up): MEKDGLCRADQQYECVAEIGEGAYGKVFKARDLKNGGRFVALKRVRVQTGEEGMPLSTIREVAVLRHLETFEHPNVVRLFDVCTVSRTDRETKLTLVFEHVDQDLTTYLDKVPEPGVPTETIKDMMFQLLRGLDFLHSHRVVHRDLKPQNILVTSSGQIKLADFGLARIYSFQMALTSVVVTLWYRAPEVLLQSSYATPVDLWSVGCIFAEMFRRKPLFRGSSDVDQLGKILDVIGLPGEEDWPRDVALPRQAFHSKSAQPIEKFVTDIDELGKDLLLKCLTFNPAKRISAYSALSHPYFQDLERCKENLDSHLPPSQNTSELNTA
# Assay Procedure: radiometric filter-binding kinase assay, Kinase HotSpot
# Reported Conditions: compound 0.5 µM; ATP 10 µM

Chemical String	Assay Target	residual activity / %
N#C/C(=C\c1ccc(O)c(O)c1)C(=O)NCc1ccccc1	CDK6 CCND1 (human) (UniProt Q00534+P24385)	95.6
C[C@@H]1CCN(C(=O)CC#N)C[C@@H]1N(C)c1ncnc2[nH]ccc12	CDK6 CCND1 (human) (UniProt Q00534+P24385)	96.5
CS(=O)(=O)CCNCc1ccc(-c2ccc3ncnc(Nc4ccc(OCc5cccc(F)c5)c(Cl)c4)c3c2)o1	CDK6 CCND1 (human) (UniProt Q00534+P24385)	100
O=C1NC(=O)c2c1c1c3ccccc3[nH]c1n1cncc21	CDK6 CCND1 (human) (UniProt Q00534+P24385)	65.7
NCCNc1ncc(C(N)=O)c(Nc2cccc(C(F)(F)F)c2)n1	CDK6 CCND1 (human) (UniProt Q00534+P24385)	94.6
COc1ccc2c(c1)/C(=C/c1cnc[nH]1)C(O)=N2	CDK6 CCND1 (human) (UniProt Q00534+P24385)	13.3
O=C1Nc2ccc(Br)cc2/C1=C\c1cc2c([nH]1)CCCC2	CDK6 CCND1 (human) (UniProt Q00534+P24385)	90.4
COc1ccc(S(=O)(=O)N(CCO)c2ccccc2CN(C)C/C=C/c2ccc(Cl)cc2)cc1	CDK6 CCND1 (human) (UniProt Q00534+P24385)	92.7
CN(C)c1ccc(/C=C2\C(=O)Nc3ccccc32)cc1	CDK6 CCND1 (human) (UniProt Q00534+P24385)	101
Cc1cncc2cccc(S(=O)(=O)N3CCCN(C(=O)CN)C[C@H]3C)c12	CDK6 CCND1 (human) (UniProt Q00534+P24385)	99.8
CCCCc1c(-c2ccc(OC)cc2)[nH]c2nccnc12	CDK6 CCND1 (human) (UniProt Q00534+P24385)	54.8
CO[C@@H]1[C@H](N(C)C(=O)c2ccccc2)C[C@H]2O[C@]1(C)n1c3ccccc3c3c4c(c5c6ccccc6n2c5c31)C(=O)NC4	CDK6 CCND1 (human) (UniProt Q00534+P24385)	96.5
COc1ccc(C(=O)Nc2sc3c(c2C(N)=O)CCCC3)cc1OC	CDK6 CCND1 (human) (UniProt Q00534+P24385)	95.1
COc1ccc(Cl)cc1NC(=O)Nc1cc(C)nc2ccccc12	CDK6 CCND1 (human) (UniProt Q00534+P24385)	89.8
NC(=O)c1cccc(-c2cc(Nc3ccc(OC(F)(F)F)cc3)ncn2)c1	CDK6 CCND1 (human) (UniProt Q00534+P24385)	99.1
Cc1cccc(-c2nc(C(C)(C)C)[nH]c2-c2ccc3c(c2)OCO3)n1	CDK6 CCND1 (human) (UniProt Q00534+P24385)	95.2
Cn1c2ccccc2c2c3c(c4c5ccccc5n(CCC#N)c4c21)CNC3=O	CDK6 CCND1 (human) (UniProt Q00534+P24385)	39.4
O=C1c2ccccc2-c2nc3nnnn3nc21	CDK6 CCND1 (human) (UniProt Q00534+P24385)	59.6
Ic1cccc(CSc2nnc(-c3ccncc3)o2)c1	CDK6 CCND1 (human) (UniProt Q00534+P24385)	97.5
O=C1c2ccccc2-c2n[nH]c3cccc1c23	CDK6 CCND1 (human) (UniProt Q00534+P24385)	88.6
CN1CCN(c2ccc3nc(-c4c(N)c5c(F)cccc5[nH]c4=O)[nH]c3c2)CC1	CDK6 CCND1 (human) (UniProt Q00534+P24385)	74.6
O=C(c1cc2cc(O)ccc2[nH]1)c1cc2cc(O)ccc2[nH]1	CDK6 CCND1 (human) (UniProt Q00534+P24385)	81.2
